FYI, the data here is from patent US10562857B2.

# target: Cav3.1 (Homo sapiens, UniProt O43497)
# Sequence (O43497 whole entry): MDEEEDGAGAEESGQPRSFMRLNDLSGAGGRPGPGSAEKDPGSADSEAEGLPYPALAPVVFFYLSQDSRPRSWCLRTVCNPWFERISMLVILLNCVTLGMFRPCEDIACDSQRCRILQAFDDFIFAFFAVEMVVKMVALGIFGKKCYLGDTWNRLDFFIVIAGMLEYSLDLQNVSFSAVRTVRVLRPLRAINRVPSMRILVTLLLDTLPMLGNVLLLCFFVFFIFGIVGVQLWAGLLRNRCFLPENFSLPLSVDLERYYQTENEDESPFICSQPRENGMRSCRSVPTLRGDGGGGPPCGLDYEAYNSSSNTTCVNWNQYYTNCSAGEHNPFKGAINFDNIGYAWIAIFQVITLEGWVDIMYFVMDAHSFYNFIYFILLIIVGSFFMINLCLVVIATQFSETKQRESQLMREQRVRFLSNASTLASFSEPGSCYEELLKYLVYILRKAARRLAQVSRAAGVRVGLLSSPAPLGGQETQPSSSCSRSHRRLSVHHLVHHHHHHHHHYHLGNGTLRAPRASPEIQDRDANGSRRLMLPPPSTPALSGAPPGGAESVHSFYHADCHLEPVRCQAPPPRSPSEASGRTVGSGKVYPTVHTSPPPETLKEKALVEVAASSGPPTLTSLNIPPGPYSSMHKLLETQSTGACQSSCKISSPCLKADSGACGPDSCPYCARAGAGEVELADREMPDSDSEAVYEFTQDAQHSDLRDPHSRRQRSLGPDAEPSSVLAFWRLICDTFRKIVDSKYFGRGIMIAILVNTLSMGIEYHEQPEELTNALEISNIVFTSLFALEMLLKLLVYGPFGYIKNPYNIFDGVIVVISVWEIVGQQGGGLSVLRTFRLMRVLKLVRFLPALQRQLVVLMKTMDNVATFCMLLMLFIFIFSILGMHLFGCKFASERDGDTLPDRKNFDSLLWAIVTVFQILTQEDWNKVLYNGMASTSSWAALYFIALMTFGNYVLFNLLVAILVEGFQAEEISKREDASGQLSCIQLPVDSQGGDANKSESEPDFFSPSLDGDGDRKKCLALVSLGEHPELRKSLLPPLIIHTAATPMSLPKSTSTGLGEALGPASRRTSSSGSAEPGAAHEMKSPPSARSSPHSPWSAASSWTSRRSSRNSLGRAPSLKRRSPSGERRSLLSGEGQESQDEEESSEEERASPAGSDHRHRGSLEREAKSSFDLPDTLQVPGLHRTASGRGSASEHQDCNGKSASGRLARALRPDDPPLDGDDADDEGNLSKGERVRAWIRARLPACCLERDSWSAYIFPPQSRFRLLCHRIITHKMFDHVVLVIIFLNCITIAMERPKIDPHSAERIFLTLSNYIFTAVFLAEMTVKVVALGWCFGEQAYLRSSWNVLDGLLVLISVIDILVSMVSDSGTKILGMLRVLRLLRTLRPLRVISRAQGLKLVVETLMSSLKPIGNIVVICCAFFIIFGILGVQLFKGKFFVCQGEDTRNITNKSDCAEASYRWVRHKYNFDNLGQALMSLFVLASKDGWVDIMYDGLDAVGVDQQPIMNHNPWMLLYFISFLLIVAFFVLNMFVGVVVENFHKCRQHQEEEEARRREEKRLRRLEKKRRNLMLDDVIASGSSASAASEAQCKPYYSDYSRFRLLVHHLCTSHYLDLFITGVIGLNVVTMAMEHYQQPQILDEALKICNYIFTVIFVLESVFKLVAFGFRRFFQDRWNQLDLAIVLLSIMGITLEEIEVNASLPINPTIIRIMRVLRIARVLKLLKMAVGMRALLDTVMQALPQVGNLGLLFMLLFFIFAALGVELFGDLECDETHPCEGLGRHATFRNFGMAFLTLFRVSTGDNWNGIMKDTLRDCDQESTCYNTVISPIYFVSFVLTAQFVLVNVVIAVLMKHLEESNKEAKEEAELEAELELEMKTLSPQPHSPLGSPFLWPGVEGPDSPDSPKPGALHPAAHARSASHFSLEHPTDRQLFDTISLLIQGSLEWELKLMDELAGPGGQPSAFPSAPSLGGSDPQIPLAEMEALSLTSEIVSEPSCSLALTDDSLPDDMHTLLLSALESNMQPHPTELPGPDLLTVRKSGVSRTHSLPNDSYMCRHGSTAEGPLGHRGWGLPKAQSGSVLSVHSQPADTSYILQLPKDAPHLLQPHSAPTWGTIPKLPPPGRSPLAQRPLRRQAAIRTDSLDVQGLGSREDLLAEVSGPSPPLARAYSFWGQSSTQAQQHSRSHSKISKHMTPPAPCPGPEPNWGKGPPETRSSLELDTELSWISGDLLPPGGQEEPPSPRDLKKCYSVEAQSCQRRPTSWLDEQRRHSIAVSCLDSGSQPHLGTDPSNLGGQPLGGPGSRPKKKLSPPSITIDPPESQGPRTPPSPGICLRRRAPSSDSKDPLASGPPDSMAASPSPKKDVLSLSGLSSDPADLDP
# assay protocol: Whole-cell patch clamp of T-type Cav3.1 channel expressed in HEK293 cells
# condition notes: Table 2
# Text: Cav3.1, Cav3.2 or Cav3.3 channels were expressed in human embryonic kidney (HEK)-293 cells using a tetracycline inducible expression system (Invitrogen). […]
quantity: IC50 (nM)
Express your answer in nM, writing the number without its unit.

Record excerpt, results attached:
CC(C)(C)CCN1CCC2(CC1)C[C@H]2NC(=O)c1cc(C(F)(F)F)cc(C(F)(F)F)c1 (single isomer, unassigned)	120
CC(C)(C)NC(=O)CN1CCC2(CC1)C[C@H]2NC(=O)C12CC3CC(CC(C3)C1)C2 (single isomer, unassigned)	70

Consider the record given below.
-- ask Param readout= IC50; system= Cav3.1 (Homo sapiens, UniProt O43497); entry= CC(C)(C)NC(=O)CN1CCC(CNC(=O)c2cc(F)cc(Cl)c2)CC1 [Z944, reference compound] ; returns value.
-- reply 110
